These entries and their values trace back to PubChem BioAssay (NCI).

System: SK-MEL-5 melanoma
Experiment: NCI tumour cell line growth inhibition, 48 h
Please respond with reported GI50 for every item in the list.

Query string: Name the recorded GI50 of the item Cc1cc(C)c([O-])c(CN(C)CCN(C)Cc2cc(C)cc(C)c2[O-])c1.O=C([O-])c1cccc(C(=O)[O-])n1.[Ti+4] in your answer.
Result string: 2.9 µM

Query string: Supply recorded GI50 for O=c1c(Oc2ccc(F)cc2F)cc2cnc(NC3CCOCC3)nc2n1C1CCS(=O)(=O)CC1 here.
Result string: > 25 µM

Query string: Fill in GI50 for record CC(C)=CCCC(C)c1ccc(C)c2c1OCN(CC1CCNCC1)C2 (centres undefined)
Result string: 4.97 µM

Query string: Specify reported GI50 for the compound shown: Cc1nc2sc(C(=O)Nc3cccc(Cl)c3C)c(N)c2cc1C(=O)/C=C/c1ccccc1
Result string: 0.572 µM

Query string: Quote GI50 reported for O=Cc1ccc(-c2cc(C=O)c(-c3cccs3)[nH]2)s1 please.
Result string: 40.5 µM

Query string: Give the value of GI50 reported for the following: O=c1c2c(nc3n1CCS3)[nH]c1ccccc12
Result string: 2.75 µM

Query string: Entry O=c1c2cc(Cl)ccc2oc2ccc(OCCCCCN3CCCCC3)cc12 needs its GI50 filled in; supply it.
Result string: 0.892 µM

Query string: Give the value of GI50 reported for the following: C=C1C(=O)O[C@H]2[C@H]1CC/C(CNC(=O)c1cc3cc(OC)ccc3[nH]1)=C\CC[C@@]1(C)O[C@@H]21
Result string: 2.01 µM

Query string: Given the compound CCOC(=O)C(Cc1c[nH]c2ccc(N)cc12)(NC(C)=O)C(=O)OCC , write its reported GI50.
Result string: > 1000 µM

----------
Tested on: UO-31 renal
Experiment: NCI tumour cell line growth inhibition, 48 h
Measure name: GI50

Query string: Name the value of GI50 reported for O=C(/C=C/c1ccc(F)cc1)c1ccc(Cl)cc1Cl when tested on UO-31 renal.
Result string: 91.8 µM

Query string: State GI50 (UO-31 renal) of O=Cc1ccc(-c2cc(C=O)c(-c3cccs3)[nH]2)s1 .
Result string: 34 µM

Query string: Tell me GI50 of O=C(O[C@H]1CN[C@H](C#Cc2cc3ncnc(Nc4ccc5c(ccn5Cc5cc(F)ccc5F)c4)c3s2)C1)N1CCOCC1 when tested on UO-31 renal.
Result string: 0.339 µM

Query string: Give GI50; test system UO-31 renal; molecule Nc1c(C(=O)c2ccc(Cl)cc2)sc(Nc2ccccc2)c1-c1nc2ccccc2s1
Result string: 2.16 µM

Query string: Print UO-31 renal GI50 for CCOC(=O)C(N)C[S][Sn]([CH3])([CH3])[Cl] (stereo not given) .
Result string: > 100 µM

Query string: Report GI50 under test system UO-31 renal for COc1cc(OC)c(/C=C/S(=O)(=O)Cc2cnc(OC)c(N)c2)c(OC)c1 .
Result string: < 0.0251 µM

Query string: Retrieve GI50 on UO-31 renal; query COC(=O)c1cc2c(cc1Cl)SC(N(N(C)C)S(=O)(=O)c1ccc(Br)s1)=NS2(=O)=O
Result string: 27.3 µM

Query string: For UO-31 renal, give GI50 of the listed molecule: CCOC(=O)C(Cc1c[nH]c2ccc(N)cc12)(NC(C)=O)C(=O)OCC
Result string: > 1000 µM

Query string: Report GI50 on UO-31 renal for this entry: Cc1c[nH]c2c(O)cc3c(c12)[C@H](CCl)CN3C(=O)c1cc2cc(NC(=O)Nc3ccc4[nH]c(C(=O)N5C[C@@H](CCl)c6c5cc(O)c5[nH]cc(C)c65)cc4c3)ccc2[nH]1
Result string: 0.0291 µM

Query string: Recall the reported GI50 of COc1ccc(CN(C)c2ccc(CO)c(Cl)c2)cc1 on UO-31 renal and write it down.
Result string: 9.38 µM
